procedure-details: ICB984 medulloblastoma cell growth inhibition, synergistic combos for chromothripsis tumors, cisplatin or BGB combos (AID 1671451);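 also: cells exposed for 96 hours before readout; 0% = vehicle DMSO and 100% = killing by high DMSO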
test-context: ICB984 medulloblastoma cells, drug combinations, BGB IC40 combo, at 0.05 µM, stronger effect = higher value
Given measured inhibition, output condition met if it is greater than or equal to -10% and condition not met if not.

Check if inhibition >= -10% (inclusive). Item: O=c1ncccn1[C@@H]1O[C@H](CO)[C@@H](O)[C@H]1O
condition not met

Hi team, for CC[C@@]1(O)C(=O)OCc2c1cc1n(c2=O)Cc2cc3cc(O)ccc3nc2-1 , is the recorded inhibition at or above -10%?
condition met

Hi team, for CC(C)N=c1cc2n(-c3ccc(Cl)cc3)c3ccccc3nc-2cc1Nc1ccc(Cl)cc1 , is the recorded inhibition at or above -10%?
condition not met

Answer whether inhibition of O=c1[nH]c(-c2ccc(C(F)(F)F)cc2)nc2c1CSCC2 is greater than or equal to -10%.
condition not met

Textbook exercise: given the entry NC(=O)c1ncn(C2OC(CO)C(O)C2O)n1 (stereo unspecified) , state whether its inhibition is greater than or equal to -10%.
condition met

# bool: inhibition of O=c1cc(-c2cccc3c2Sc2ccccc2S3)oc(N2CCOCC2)c1 >= -10%
condition met

====

What period change was measured for each of the following?
procedure-details: circadian clock period modulators, cell-based, LOPAC library, luminescence reporter (AID 2774);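 also: values are relative to mean of DMSO wells on each plate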
test-context: circadian reporter cells, at 7 µM, actives lie on both sides
Calls of active or inactive are those of the source. No rule for the calls is given here.

compound CC(C)(CO)Cc1cc(C(C)(C)C)c(O)c(C(C)(C)C)c1 , period change observed: 0.05 h (inactive)

The recorded period change for entry N=C(N)SCCN equals -0.04 h (inactive)

# period change (compound: COc1ccc(CCN(C)CCc2ccc(OC)c(OC)c2)cc1OC ) is 0.045 h (inactive)

Recorded result, C[C@@H](CN1CCC(Cc2ccccc2)CC1)[C@@H](O)c1ccc(O)cc1 , period change: 0.12 h (inactive)

Lab note: O=C(O)C1=CC(=C(c2ccc(O)c(C(=O)O)c2)c2ccc(O)c(C(=O)O)c2)C=CC1=O gave period change of -0.145 h (inactive)

Measured period change of NC[C@@H]1O[C@H](C23CC4CC(CC(C4)C2)C3)Cc2c1ccc(O)c2O : 0.01 h (inactive)

period change in this record for CCC(NC(C)C)C(O)c1ccc(O)c(O)c1 (centres undefined) : 0.18 h (inactive)

According to the records, this compound Nc1ncnc2c1ncn2C1CCCO1 (centres undefined) displays period change of -0.01 h (inactive)

Entry under test: CC(C)NC[C@H](O)COc1ccc(CC(N)=O)cc1 . Its period change was -0.06 h (inactive)

Looking up CNC(=O)c1cc2c(cn1)[nH]c1ccccc12 , I found its period change recorded as -0.24 h (inactive)

# period change of Nc1nc(N)c2nc(CNc3ccc(C(=O)NC(CCC(=O)O)C(=O)O)cc3)cnc2n1 (centres undefined) = -0.245 h (inactive)

Notebook: O=C1Nc2ccc(I)cc2/C1=C/c1cc(Br)c(O)c(Br)c1 , period change read as -0.055 h (inactive)

Sample CC(C)C[C@H](NC(=O)[C@@H](O)[C@H](N)Cc1ccccc1)C(=O)O ; period change observed: 0.15 h (inactive)

period change in this record for COc1ccc(NC(=O)c2ccc(-c3ccc(-c4noc(C)n4)cc3C)cc2)cc1N1CCN(C)CC1 : 0.065 h (inactive)

Entry CCCCCCCC/C=C\CCCCCCCC(=O)NCCc1ccc(O)c(O)c1 — recorded period change = 0.16 h (inactive)

period change in this record for CN1CCN(c2nc3cc(C(F)(F)F)ccc3n3cccc23)CC1 : -0.085 h (inactive)

// CCCCCCCCCCCCCCCC(=O)OC(CC(=O)O)C[N+](C)(C)C (centres undefined) : period change value = 0.01 h (inactive)

period change for CC(N)(Cc1ccc(O)c(O)c1)C(=O)O (centres undefined) is -0.1 h (inactive)

For this compound ( NC(N)=NC(N)=Nc1cccc(Cl)c1 ), measured period change is 0.15 h (inactive)

Recorded period change (compound C=CCN1CCc2cc(O)c(O)cc2C(c2ccccc2)C1 (centres undefined) ): 0.045 h (inactive)

What the record says about O=C(O)c1ccccc1Nc1cccc(OCc2ccc3ccccc3n2)c1 : period change is -0.125 h (inactive)

Cn1cc(C(=O)OCC2CCN(CCNS(C)(=O)=O)CC2)c2ccccc21 has a reported period change of 0.07 h (inactive)

period change recorded for this compound, CC1CCN(CC[C@H]2CCCN2S(=O)(=O)c2cccc(O)c2)CC1 , is 0.055 h (inactive)

period change in this record for NCC(O)(CS(=O)(=O)O)c1ccc(Cl)cc1 (centres undefined) : 0.035 h (inactive)
